TARGET OF ASSAY: UniProtKB Q13535
Sequence (Q13535 whole entry): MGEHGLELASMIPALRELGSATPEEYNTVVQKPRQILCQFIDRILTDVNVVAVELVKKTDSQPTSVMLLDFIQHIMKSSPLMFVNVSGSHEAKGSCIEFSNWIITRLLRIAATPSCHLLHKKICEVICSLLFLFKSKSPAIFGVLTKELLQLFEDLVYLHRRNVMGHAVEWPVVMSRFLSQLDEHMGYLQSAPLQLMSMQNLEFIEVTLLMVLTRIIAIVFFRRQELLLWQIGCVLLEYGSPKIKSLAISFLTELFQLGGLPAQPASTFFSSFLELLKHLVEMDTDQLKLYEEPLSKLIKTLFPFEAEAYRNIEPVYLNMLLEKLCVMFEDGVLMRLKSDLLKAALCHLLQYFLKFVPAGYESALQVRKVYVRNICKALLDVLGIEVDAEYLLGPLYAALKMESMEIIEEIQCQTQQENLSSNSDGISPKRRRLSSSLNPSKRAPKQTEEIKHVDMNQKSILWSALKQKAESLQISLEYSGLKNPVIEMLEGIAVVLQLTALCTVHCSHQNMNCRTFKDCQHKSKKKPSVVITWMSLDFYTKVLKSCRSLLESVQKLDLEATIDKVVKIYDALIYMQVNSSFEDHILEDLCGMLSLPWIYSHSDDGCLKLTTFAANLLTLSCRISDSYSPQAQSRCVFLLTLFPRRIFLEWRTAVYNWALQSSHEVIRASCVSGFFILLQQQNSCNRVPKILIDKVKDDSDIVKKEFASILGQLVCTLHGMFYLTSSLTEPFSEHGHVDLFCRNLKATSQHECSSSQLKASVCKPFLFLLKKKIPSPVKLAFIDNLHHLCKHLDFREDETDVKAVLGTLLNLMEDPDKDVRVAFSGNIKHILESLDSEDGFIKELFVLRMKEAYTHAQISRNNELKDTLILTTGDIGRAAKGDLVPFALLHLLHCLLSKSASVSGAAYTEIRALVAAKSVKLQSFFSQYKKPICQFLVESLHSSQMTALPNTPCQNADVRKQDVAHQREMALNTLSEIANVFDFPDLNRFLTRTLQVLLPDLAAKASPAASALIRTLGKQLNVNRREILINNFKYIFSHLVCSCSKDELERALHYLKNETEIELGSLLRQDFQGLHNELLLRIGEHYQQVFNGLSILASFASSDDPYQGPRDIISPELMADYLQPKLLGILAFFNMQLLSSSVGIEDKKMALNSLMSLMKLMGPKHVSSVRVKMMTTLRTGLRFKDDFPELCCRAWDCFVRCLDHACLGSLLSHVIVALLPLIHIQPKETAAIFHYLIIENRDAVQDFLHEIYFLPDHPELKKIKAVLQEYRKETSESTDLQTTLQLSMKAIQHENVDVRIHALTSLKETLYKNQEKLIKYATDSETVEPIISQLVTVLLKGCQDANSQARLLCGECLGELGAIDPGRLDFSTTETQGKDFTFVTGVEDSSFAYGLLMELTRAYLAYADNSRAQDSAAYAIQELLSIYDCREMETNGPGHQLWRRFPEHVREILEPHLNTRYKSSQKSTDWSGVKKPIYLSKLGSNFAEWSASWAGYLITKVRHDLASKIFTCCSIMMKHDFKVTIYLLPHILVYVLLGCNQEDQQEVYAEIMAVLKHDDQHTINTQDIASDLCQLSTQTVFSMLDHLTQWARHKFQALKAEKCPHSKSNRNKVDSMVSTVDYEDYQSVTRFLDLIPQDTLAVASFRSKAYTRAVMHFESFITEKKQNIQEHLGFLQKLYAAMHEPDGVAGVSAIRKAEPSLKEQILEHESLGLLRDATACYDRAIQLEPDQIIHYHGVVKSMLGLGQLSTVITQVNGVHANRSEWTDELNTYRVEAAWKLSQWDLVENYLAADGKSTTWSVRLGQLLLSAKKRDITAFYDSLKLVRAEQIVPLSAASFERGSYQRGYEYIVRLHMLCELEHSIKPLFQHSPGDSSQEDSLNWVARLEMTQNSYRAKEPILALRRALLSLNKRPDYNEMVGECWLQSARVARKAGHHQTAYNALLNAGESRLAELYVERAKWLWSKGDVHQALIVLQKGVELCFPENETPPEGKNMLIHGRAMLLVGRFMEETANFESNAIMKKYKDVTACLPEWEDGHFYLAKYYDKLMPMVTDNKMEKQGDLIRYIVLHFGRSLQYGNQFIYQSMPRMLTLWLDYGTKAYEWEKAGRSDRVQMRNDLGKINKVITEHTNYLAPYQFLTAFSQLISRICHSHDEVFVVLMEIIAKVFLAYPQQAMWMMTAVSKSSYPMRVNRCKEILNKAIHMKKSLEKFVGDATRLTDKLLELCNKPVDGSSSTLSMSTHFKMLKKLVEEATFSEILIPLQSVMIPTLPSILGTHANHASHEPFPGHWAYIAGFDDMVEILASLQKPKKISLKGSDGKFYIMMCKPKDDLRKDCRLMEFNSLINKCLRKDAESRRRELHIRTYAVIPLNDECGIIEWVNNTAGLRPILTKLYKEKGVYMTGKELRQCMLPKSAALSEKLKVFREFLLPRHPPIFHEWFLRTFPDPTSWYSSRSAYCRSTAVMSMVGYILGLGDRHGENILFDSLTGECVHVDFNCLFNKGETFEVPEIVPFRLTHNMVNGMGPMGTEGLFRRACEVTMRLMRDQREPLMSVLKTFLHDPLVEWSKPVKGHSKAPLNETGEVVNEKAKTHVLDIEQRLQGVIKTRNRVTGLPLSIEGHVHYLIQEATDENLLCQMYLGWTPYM
PROTOCOL NOTES: ATR inhibition assay (radioactive-phosphate incorporation)
Type: biochemical
ASSAY SETUP: Ki(app), 5 nM full-length ATR, 10 μM ATP, 25° C.
pKi: −log10 of the molar value.
MEASUREMENT TYPE: pKi

Nc1nn2cc(F)cnc2c1C(=O)Nc1cnccc1N1CCN(C2CC2)CC1 | 6.00 to 8.00
Nc1nn2cc(F)cnc2c1C(=O)Nc1cnccc1N1CCC(C(=O)N2CCC3(COC3)C2)CC1 | 6.00 to 8.00
CC1CN(C)CCN1c1ccncc1NC(=O)c1c(N)nn2cc(Cl)cnc12 (centres unmarked) | 6.00 to 8.00
CN1CCN(c2c(F)cncc2NC(=O)c2c(N)nn3cc(F)cnc23)CC1=O | 6.00 to 8.00

Proceed to the following item.
-- ask What measured pKi is associated with CN1CCN(c2c(F)cncc2NC(=O)c2c(N)nn3cc(F)cnc23)CC1 on UniProtKB Q13535?
-- reply 6.00 to 8.00
